method notes: amyloid nucleation score (Sup35N fusion, yeast selection) (log enrichment); library NNK1; higher = more nucleation; inactive = no reads after selection;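 further: zero at mode of non-aggregating sequences after 7 days selection at 30°C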

| substance | amyloid nucleation score |
| --- | --- |
| MDLHTACVYSKVGMTLDQPS | 0.343 |
| AISAYELSRIRVQS | 0.487 |
| WGYDTHLLMNLRNVCIGFLR | -0.431 |
| LKHRRSWYLTYIDCAGM | -0.294 |
| NWYVVYSWSEQIYREDSMGT | -0.52 |
| LTKASHVRLNNVGV | 0.034 |
| ISWSASLDIDINCQCRGLWG | 3.35 |
| TFMHARDYDMNS | -0.666 |
| FVMSHSL | 0.987 |
| CSILYAAPKIRQSARFLMLS | 0.451 |
| YLLQSAIFGAGVHT | 0.672 |
| CNIVFSPGTDNVVEIRVRKL | 4.15 |
| TSPYDSNGLFAMLAELHFYS | 0.082 |
| DIRDYGLWWDKWAEGC | 0.459 |
| KIPLNRIAVNASLRQRYCNP | 0.122 |
| LSKKFWRFVWARLSEELIER | 0.811 |
| RACVNSHQRMGGDGSLSMVL | 2.48 |
| SIHGGFYTLPE | 1.15 |
| YGSNWLEGVGLYRGVARQSW | -0.781 |
| VNYISHTQMKTR | 0.913 |
| RWMSYHIVPRRGSYCVTTLT | 0.492 |
| IQSIIW | -0.418 |
| NVMIAIPYVGVDKRGMVSGM | 5.22 |
| PLPPLVMLPQ | -0.481 |
| QSFSLS | 0.609 |
| VHNHISP | -0.836 |
| VGISCPYYLGRGIMVEARSD | -0.006 |
| YVVCKGIRSSSWDSWVSKR | -0.393 |
| VEIYWWGYPPKNSI | -0.239 |
| LVMFMNMSLRYNRGLSLVKR | -0.252 |
| WLFSPNVFVNFCFG | 6.91 |

###

method notes: amyloid nucleation score (Sup35N fusion, yeast selection) (log enrichment); library NNK2; higher = more nucleation; inactive = no reads after selection

| substance | amyloid nucleation score |
| --- | --- |
| HGGFGYR | -0.336 |
| VYYASDNWYLAYRWEGRRFN | 0.821 |
| VIPYVIQSYWMGMN | -1.56 |
| QTPIGK | -0.66 |
| MFCRTRALSRTGPTGQLLRV | 3.56 |
| DRHYCQKGEWRKDEDVFPVE | 0.13 |
| SYVSIWLACWLISFNWSGNG | 0.713 |
| MTYYRAYFAYLWVVRLWL | 0.029 |
| SVIITIGLSIKSALRFRRFQ | 4.57 |
| LMSFGDLCIHLGFGSCFCLM | -0.631 |
| ERSNSRVVDL | -0.539 |
| ENGAKVLVIVYKGYPLVPWV | -0.089 |
| RLSYWFIKELGNTSDYDRAP | -0.541 |
| TMLSLSDISFQLKKILL | 2.56 |
| SQLVMHYKQVC | 1.82 |
| RSQGLWMHAGPSFSVGYPFG | 3.9 |
| MQKRRDSKYEYLVFGCDVCM | -1.13 |
| SNSGINHIRCCLYPLFYLIM | 2.35 |
| AVMMCIASIDFRVWYLG | 1.53 |
| KPHRIENGSTREDEEG | 0.747 |
| TCCRLILYGILINNLRAWSH | 4.01 |
| FHHSHANSNVSRGIDIFGAV | -0.454 |
| VCHAGTWLQSGRTRYSIVRN | 3.51 |
| KNDGEVMKSVFKDRHCCART | -0.565 |
| WAPFMGVSKSTQTARTGMVM | -0.146 |
| KSSVELWTFERA | 1.14 |
| LEMFYRVPLPRCKTYLQFRC | 0.471 |
| IMCRRG | 0.698 |
| FVLNHLAV | -0.548 |
| SVLTIRLKMQGHWLPGAAGC | 3.66 |
| HARVKLVIILLTLREGGMFW | -0.108 |
| YVPDGAQARLDASIFIVCSR | 5.23 |
| ICMAGEVGKQRGYLDGGMP | 0.505 |
| YILMHGSHM | 3.73 |
| RWYRRCLYT | 0.162 |
| FFSDVSLVQYHLTLRFLMAY | -1.69 |
| WIFSPGLMDFVEHDNLEWIA | 0.67 |
| DRAYDVCGRSRRWYQKKLGM | -0.667 |
| YLASFVFGIVNTYSAVALS | 0.552 |
| GWAKPMGFNLILR | 0.265 |
| LLIFNGLYGWAIGDGLPSSW | 5.09 |
| EDLYFTTGMLAKKCGPQGMG | 5.04 |
| YSNSDTAMSLGARLAYGVL | 5.38 |
| GEISIGMNLTGEKTSSSGFK | -0.679 |
| YYSYYWQTNHID | -1.68 |
| AIASLTRTFSA | 0.167 |
| RGSRVLSFILLRISNWIFQD | -0.239 |
| LARASKHCSEVLGDCLA | 0.366 |
| NWGWSAILKPLRFAVFRPWN | 0.336 |
| VLNGNLSFLSAVWFGKM | 6.73 |
| LLRRGVDIWVEHFRE | -0.613 |
| SVVLCTAFVQPC | 0.158 |
| FSRWVVVLVVQLWSLALRSN | 0.369 |
